Target: Adrenergic receptor alpha-1 (Rattus norvegicus) (UniProt P15823+P23944+P43140)
Experiment: Inhibition of [3H]prazosin binding to adrenergic alpha-1 receptor in rat cortical membrane at 100 nM
Type: cell membranes
PARAMETER: inhibition (%)

COMPOUND: c1ccc2c(c1)NCC(CNCCc1c[nH]c3ccccc13)O2 (centres undefined)
PARAMETER: inhibition
MEASURED NUMBER: 26
--
COMPOUND: CN1CC(CNCCc2c[nH]c3ccccc23)Oc2ccccc21 (centres undefined)
PARAMETER: inhibition
MEASURED NUMBER: 28
--
COMPOUND: Fc1ccc2[nH]cc(CCNCC3CN(c4ccccc4)c4ccccc4O3)c2c1 (centres undefined)
PARAMETER: inhibition
MEASURED NUMBER: 65
--
COMPOUND: CN1CC(CNCCc2c[nH]c3ccc(F)cc23)Oc2ccccc21 (centres undefined)
PARAMETER: inhibition
MEASURED NUMBER: 26
